All values here come from patent US20070191345A1.

- measuredOn: human cloned 5-HT6 receptors (Homo sapiens)
- Construct: expressed in transfected cells; host or cells: HeLa cells expressing the cloned 5-HT6 receptor (washed membranes)
- Sequence (P50406 whole entry): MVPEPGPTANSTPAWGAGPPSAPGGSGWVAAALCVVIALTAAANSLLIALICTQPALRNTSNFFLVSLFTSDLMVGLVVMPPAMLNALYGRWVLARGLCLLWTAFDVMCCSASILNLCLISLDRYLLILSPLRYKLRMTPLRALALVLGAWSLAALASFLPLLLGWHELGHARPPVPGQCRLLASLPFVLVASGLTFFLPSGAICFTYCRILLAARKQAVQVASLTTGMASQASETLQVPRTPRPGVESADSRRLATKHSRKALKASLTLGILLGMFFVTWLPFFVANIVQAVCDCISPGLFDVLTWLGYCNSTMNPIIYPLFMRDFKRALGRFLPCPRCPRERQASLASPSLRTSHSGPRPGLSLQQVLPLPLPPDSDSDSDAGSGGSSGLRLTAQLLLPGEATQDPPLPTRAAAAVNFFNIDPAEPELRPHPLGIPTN
- assayInfo: Cyclase assay (cAMP production in washed membranes of HeLa 5HT6 cells, 5-HT stimulated)
- Format: biochemical
Where a name gives a salt, the structure may show the parent alone.
endpointLabel: Ki

Record O=S(=O)(c1ccccc1)c1cnc2c(OCC3CC4CCN3CC4)cccc2c1 (stereo not shown) [Example E22, hydrochloride] . Reported Ki: < 10 nM
